- TARGET ENTITY: T1, His-tagged CD47 recombinant protein, CD47-His (human, UniProt Q08722 19-141, limits assumed)
- T1 construct: it is not restated for CD47-His; also called human CD47-His protein; antigen CD47-His; not shown: His tag
- RUN DESCRIPTION: ELISA on coated CD47-His; Ab 0.004 nM
MEASUREMENT TYPE: OD450 nm

| BINDER | EXPERIMENTAL RESULT |
| --- | --- |
| 4D10B11 (antibody, V domains shown, Murine hybridoma antibody purified on protein G) VH: QVQLQQSGPELVKPGASVKISCKASGYSFTSYYIHWVKQRPGQGLEWIGWIYPGSGNTKYNEKFKGKATLTADTSSSTADMQLSSLTSEDSAVYYCARRGDWYFDVWGTGTTVTVSS VL: DIVMSQSPSSLVVSVGEKVTMNCKSSQSLLFSGNQKSSLAWYQQKPGQSPKLLIYWASTRESGVPDRFTGSGSGTDFTLIISTVKAEDLAVYSCQQYYSYPLTFGAGTKLELK | 0.18 |
| 25E3B5 (antibody, V domains shown, Murine hybridoma antibody purified on protein G) VH: QVQLQQPGTALVRPGSSVKLSCKASGYTFTSYWMHWVRQRPIKGLEWIGNIDPSDSETHYNQRFKDKVTLTVDKSSNTAYMQLSSLTSEDSAVYYCARWKYHGIGAMDYWGQGTSVTVSS VL: DVQITQSPSYLAASPGETVTISCRTNRNISKFLAWYQEKPGKTNKLLIYSGSTLHSGIPSRFSGSGSGTDFTLTISRLEPEDFAMYYCQQHNEYPWSFGGGTKLEIK | 0.14 |
| 132D1E5 (antibody, V domains shown, Murine hybridoma antibody purified on protein G) VH: QVQLQQPGAELVRPGSSVKLSCKASGYTFTNNWMHWVKQRPLQGLEWIGNIDPSDSETHYNQKFKDKATLTVDKSSTTAYIQLSSLTSEDSAVYYCARWRGGGRGAMDYWGQGTSVTVSS VL: DVQITQSPSYLAASPGETITINCRTSKNISKFLAWYQEKPGKTNKLLIYSGSTLQSGIPSRFSGSGSGTDFTLTISNLEPEDFAMYYCQQHNEYPWTFGRGTKLEIK | 0.14 |
| 95E2D10 (antibody, V domains shown, Murine hybridoma antibody purified on protein G) VH: QIQLQQSGPELVKPGASMKISCKASGYPFTDYYIHWVKQKPGQGLEWIGWIYPGSGNNKYNEKFKGKATLTVDTSPSTVYMQLSSLTSEDTAVYFCARRAGNYFDYWGQGTTLTVSS VL: NIVMTQSPKSMSRSVGERVTLSCRASENVRTYVFWYQQKPGLSPKLLIYGASNRYIGVPDRFTGSGSATDFTLTISSVQAEDLADYHCGQSYSYPLTFGAGTKLELK | 0.17 |
| 20H4G5 (antibody, V domains shown, Murine hybridoma antibody purified on protein G) VH: QVQLQQPGAELVRPGSSVRLSCVTSGYTFTSHWMHWVKQGPIKGLEWIGNIDPSDSETHYNQKFKDKATLTVDKSSSTAYMQLSRLTSDDSAVYYCARWRHLGIGAMDYWGQGTSVIVSS VL: DVQITQSPSYLAASPGETITINCRASKNISKFLAWYQAKPGKSNNLLIYSGSTLQSGIPSRFSGSGSGTDFTLTISRLEPEDFAMYYCQQHNEYPWTFGGGTKLEIK | 0.31 |
| 51E2F11 (antibody, V domains shown, Murine hybridoma antibody purified on protein G) VH: EVQLQQSGAELVKPGASVKLSCTASGFNIKDHYIHWMNQRTEQGLEWIGRIDPDDGETRYAPKFRGKATLTADTSSNTAYLQFSSLTSEDTAVYHCTRATTITRDWYFDVWGTGTTVTVSS VL: DIVMTQSQKFMSTSVGDRVSITCKASQNVRTSVAWYQQKPGQSPKALIYLASNRHTGIPDRFTGSGSGTDFTLTIRNVQSEDLADYFCLQHWDYPLTFGAGTKLELK | 0.16 |
| 54G8G6 (antibody, V domains shown, Murine hybridoma antibody purified on protein G) VH: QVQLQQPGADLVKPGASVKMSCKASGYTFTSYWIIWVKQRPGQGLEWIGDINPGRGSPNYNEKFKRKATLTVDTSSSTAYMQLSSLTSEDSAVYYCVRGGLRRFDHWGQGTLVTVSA VL: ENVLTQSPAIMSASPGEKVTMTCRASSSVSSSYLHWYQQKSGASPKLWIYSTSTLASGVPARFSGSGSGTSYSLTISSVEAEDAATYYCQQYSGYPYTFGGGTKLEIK | 0.18 |
